Data provenance: patent US12649733B2

molecular target: BCLXL (Homo sapiens, UniProt Q07817, V10N/V9A); test: AlphaLISA assay (BIM peptide displacement); conditions: 20 pM protein, 1 nM peptide
Sequence (Q07817 with tags, fused parts or gaps V9A/V10N): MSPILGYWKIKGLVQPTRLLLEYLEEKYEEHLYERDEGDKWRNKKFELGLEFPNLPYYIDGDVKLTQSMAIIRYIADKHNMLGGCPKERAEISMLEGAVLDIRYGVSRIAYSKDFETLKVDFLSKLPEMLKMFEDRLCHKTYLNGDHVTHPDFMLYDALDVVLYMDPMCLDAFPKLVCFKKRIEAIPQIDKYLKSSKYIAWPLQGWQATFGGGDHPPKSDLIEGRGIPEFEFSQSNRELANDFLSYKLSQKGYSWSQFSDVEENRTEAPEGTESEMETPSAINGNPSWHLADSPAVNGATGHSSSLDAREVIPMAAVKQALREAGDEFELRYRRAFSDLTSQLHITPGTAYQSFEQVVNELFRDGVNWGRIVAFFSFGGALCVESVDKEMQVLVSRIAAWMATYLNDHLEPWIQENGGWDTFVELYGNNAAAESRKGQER
In this section, each of the compounds is paired with its reported IC50.
The reply should be a number in nM, with the unit left off.

>  <compound>
CNCC#Cc1ccc(OCCCc2sc(N(CCCCCO)c3cc(C)c(Nc4nc5ccccc5s4)nn3)nc2C(=O)O)c(F)c1

>  <IC50 (nM)>
0.013

$$$$
>  <compound>
CNCC#Cc1ccc(OCCCc2sc(N(CCCC(O)C[N+](C)(C)C)c3cc(C)c(Nc4nc5ccccc5s4)nn3)nc2C(=O)[O-])c(F)c1 (centres unmarked)

>  <IC50 (nM)>
0.014

$$$$
>  <compound>
CNCC#Cc1ccc(OCCCc2sc(N(CC(CO)OC)c3cc(C)c(Nc4nc5ccccc5s4)nn3)nc2C(=O)O)c(F)c1 (centres unmarked)

>  <IC50 (nM)>
0.018

$$$$

What the record says about CNCC#Cc1ccc(OCCCc2sc(N(C)c3cc(C)c(Nc4nc5ccccc5s4)nn3)nc2C(=O)O)c(F)c1 : IC50 is 0.0077

What the record says about Cc1cc(N(C)c2nc(C(=O)O)c(C3CN(C(=O)Cc4ccccc4)C3)s2)nnc1Nc1nc2ccccc2s1 : IC50 is 11
